// data source = ChEMBL document CHEMBL3507680

Consider the following compounds and their measured cytotoxicity at 70.5 h readings.
- method: Human HepG2 cell viability assay in 384 well format
- Assay type: toxicity, cell-based
- Set-up: dose 125 nL, time 70.5 hour; concentration not given beside the values
- cond: HepG2 cells, read-out: Inhibition
Note: unit % is implicit; provide only the numeric part.

Some entries whose results are on file:
| compound | value |
| --- | --- |
| COc1ccccc1OCCN1CCCCC1Cn1cncn1 (configuration not stated) | 23.7 |
| CN(C)C(=O)c1ccc(-c2cscn2)cc1 | 1.52 |
| CCOc1ccccc1-n1c(C2CC(=O)N(C)C2)n[nH]c1=O (configuration not stated) | -25.4 |
| CNC(=O)NC(=O)C(NCc1ccccc1)c1ccccc1 (configuration not stated) | 17.9 |
| Nc1nc(N)c2c(n1)OC1(COCCN(Cc3nccs3)C1)C2 (configuration not stated) | -10.4 |

Can you share its cytotoxicity at 70.5 h? I mean this compound: CCn1cc(CN2CCCN(C(=O)Cc3cccs3)CC2)cn1
28

Can you share its cytotoxicity at 70.5 h? I mean this compound: Cc1ccc(CN(C)C(=O)CNC(=O)N2CCc3ccccc3C2)o1
17.9

Can you share its cytotoxicity at 70.5 h? I mean this compound: CC1(C)CN(CC(F)(F)F)CCN1CC(N)=O
-3.8

Can you share its cytotoxicity at 70.5 h? I mean this compound: Cc1ccccc1C(=O)N1CC[C@H](O)[C@@H](N2CCOCC2)CC1
-4.48

Can you share its cytotoxicity at 70.5 h? I mean this compound: O=C1CCCN1CCN1CCCC(c2ccn[nH]2)C1 (configuration not stated)
27.7

Can you share its cytotoxicity at 70.5 h? I mean this compound: Cc1ccc(C(C)(O)CNC(=O)CCn2ccnc2C(C)C)o1 (configuration not stated)
-2.97

Can you share its cytotoxicity at 70.5 h? I mean this compound: O=C(CCCc1ccccc1)Nc1cnc(N2CCOCC2)nc1
2.35
